- System: K. baumanii 4091
- Procedure Summary: MIC against K. baumanii 4091
- Type: cell-based
- Settings: Table 2; K. baumanii 4091, OXA-23; in combination with NXL-104
Observable: MIC (µg/mL)

{"Molecule": "CC(C)(O/N=C(\\C(=O)N[C@@H]1C(=O)N2C(C(=O)[O-])=C(C[n+]3ccc4c(ccn4Cc4cc(C(=N)N)cs4)c3)CS[C@H]12)c1csc(N)n1)C(=O)O", "Measurement Unit": "µg/mL", "MIC": 2.00}

a: CC(C)(O/N=C(\C(=O)N[C@@H]1C(=O)N2C(C(=O)[O-])=C(C[n+]3ccc4n3CCN4Cc3ccc(C(=N)N)cc3)CS[C@H]12)c1csc(N)n1)C(=O)O
b: CC(C)(O/N=C(\C(=O)N[C@@H]1C(=O)N2C(C(=O)[O-])=C(C[n+]3ccccc3)CS[C@H]12)c1csc(N)n1)C(=O)O [CAZ, ceftazidime, reference compound]
c: CC(C)(O/N=C(\C(=O)N[C@@H]1C(=O)N2C(C(=O)[O-])=C(C[n+]3ccc4c(ccn4Cc4cc(C(=N)N)co4)c3)CS[C@H]12)c1csc(N)n1)C(=O)O
Given 3 molecules, produce a descending ranking by MIC. Provide your answer as the labels ordered per the instruction.
b, c, a

* * *

- System: S. aureus 3147
- Procedure Summary: MIC against S. aureus 3147
- Format: cell-based
- Settings: Table 2; S. aureus 3147, MSSA; in combination with NXL-104
Observable: MIC (µg/mL)

Use these answered entries as a reference point.
{"Compound": "CC(C)(O/N=C(\\C(=O)N[C@@H]1C(=O)N2C(C(=O)[O-])=C(C[n+]3ccccc3)CS[C@H]12)c1csc(N)n1)C(=O)O [CAZ, ceftazidime, reference compound]", "MIC, µg/mL": 8.00}
{"Compound": "CC(C)(O/N=C(\\C(=O)N[C@@H]1C(=O)N2C(C(=O)[O-])=C(C[n+]3ccc4n3CCN4Cc3ccc(C(=N)N)cc3)CS[C@H]12)c1csc(N)n1)C(=O)O [Example 2]", "MIC, µg/mL": 2.00}

1: CC(C)(O/N=C(\C(=O)N[C@@H]1C(=O)N2C(C(=O)[O-])=C(C[n+]3ccc4c(ccn4Cc4cc(C(=N)N)cs4)c3)CS[C@H]12)c1csc(N)n1)C(=O)O [Example 5]
2: CC(C)(O/N=C(\C(=O)N[C@@H]1C(=O)N2C(C(=O)[O-])=C(C[n+]3ccc4c(ccn4Cc4cc(C(=N)N)co4)c3)CS[C@H]12)c1csc(N)n1)C(=O)O [Example 6]
Pick one: 1 or 2 . Which has the bigger MIC number? Indicate your choice by writing its label.
2
(2: 4.00 µg/mL, 1: 2.00 µg/mL)

* * *

- Tested on: C. freundii 2003
- Procedure Summary: MIC against C. freundii 2003
- Format: cell-based
- Settings: Citrobacter freundii; Table 2; C. freundii 2003, Caz R, IMP S; alone; read-out: MIC
Observable: MIC (µg/mL)

Use these answered entries as a reference point.
{"Chemical Structure": "CC(C)(O/N=C(\\C(=O)N[C@@H]1C(=O)N2C(C(=O)[O-])=C(C[n+]3ccc4c(ccn4Cc4cc(C(=N)N)co4)c3)CS[C@H]12)c1csc(N)n1)C(=O)O", "Observed Measurement": 4}
{"Chemical Structure": "CC(C)(O/N=C(\\C(=O)N[C@@H]1C(=O)N2C(C(=O)[O-])=C(C[n+]3ccc4c(ccn4Cc4ccc(C(=N)N)cc4)c3)CS[C@H]12)c1csc(N)n1)C(=O)O", "Observed Measurement": 8}

1: CC(C)(O/N=C(\C(=O)N[C@@H]1C(=O)N2C(C(=O)[O-])=C(C[n+]3ccc4c(ccn4Cc4cc(C(=N)N)cs4)c3)CS[C@H]12)c1csc(N)n1)C(=O)O
2: CC(C)(O/N=C(\C(=O)N[C@@H]1C(=O)N2C(C(=O)[O-])=C(C[n+]3ccc4n3CCN4Cc3ccc(C(=N)N)cc3)CS[C@H]12)c1csc(N)n1)C(=O)O
Given the listed items, does 1 or 2 have the lesser reported MIC? Indicate your choice by writing its label.
2
(2: 2 µg/mL, 1: 8 µg/mL)
